tgt: menin-MLL interaction (Homo sapiens)
Sequence (O00255 whole entry): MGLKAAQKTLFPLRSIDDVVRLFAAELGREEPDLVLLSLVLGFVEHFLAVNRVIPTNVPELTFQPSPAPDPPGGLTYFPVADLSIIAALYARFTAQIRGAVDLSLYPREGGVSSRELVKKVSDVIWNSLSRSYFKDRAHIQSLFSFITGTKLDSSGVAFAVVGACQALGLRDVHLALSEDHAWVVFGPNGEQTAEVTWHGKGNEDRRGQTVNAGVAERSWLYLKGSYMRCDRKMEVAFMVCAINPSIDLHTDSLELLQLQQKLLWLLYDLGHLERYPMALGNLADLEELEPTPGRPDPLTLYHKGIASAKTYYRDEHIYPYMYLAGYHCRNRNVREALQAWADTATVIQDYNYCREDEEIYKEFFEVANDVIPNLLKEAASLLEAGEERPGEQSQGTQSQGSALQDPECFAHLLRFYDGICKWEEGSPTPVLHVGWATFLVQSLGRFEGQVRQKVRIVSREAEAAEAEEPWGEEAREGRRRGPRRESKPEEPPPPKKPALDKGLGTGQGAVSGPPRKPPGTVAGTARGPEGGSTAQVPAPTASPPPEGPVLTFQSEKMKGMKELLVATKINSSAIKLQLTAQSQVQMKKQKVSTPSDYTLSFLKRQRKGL
run-description: biochemical
Quick reference for IC50 among some compounds

Enquiry: Value lookup for IC50; key = Cc1c(CN2CCC(Nc3ncnc4sc(CC(F)(F)F)cc34)CC2)ccc2c1cc(C#N)n2CCN1CCNC(=O)C1
Return: < 100 nM

Enquiry: Value lookup for IC50; key = FC(F)(F)Cc1cc2c(NCC3CCN(Cc4ccc(CN5CCOCC5)cc4)CC3)ncnc2s1
Return: 500 to 2000 nM

---

tgt: menin-MLL interaction (Homo sapiens)
run-description: biochemical
pIC50: −log10 of the molar value.
Quick reference for pIC50 among some molecules

# annotated cases, reported pIC50 shown
N#Cc1cc2cc(CN3CCC(Nc4ncnc5sc(CC(F)(F)F)cc45)CC3)ccc2n1Cc1cnn(CCOCC2CC2)c1 [Compound 318]    > 7.00
O=C(Cc1ccc(Cl)cc1)N1CCN(c2ncnc3sc(CC(F)(F)F)cc23)CC1 [Compound 71]    6.30 to 7.00
Cc1c(CN2CCC(Nc3ncnc4sc(CC(F)(F)F)cc34)CC2)ccc2c1cc(C#N)n2CC(O)(CO)CCCC1CC1 (stereo not shown) [Compound 425]    > 7.00

Now look at this entry.
Enquiry: Value lookup for pIC50; key = N#Cc1ccc(N2CCC(N3CCN(c4ncnc5sc(CC(F)(F)F)cc45)CC3)CC2)cc1 [Compound 13]
Return: 6.30 to 7.00
